Test system: BDF1 mice, P388 leukemia ip, median survival T/C
assay: NCI In Vivo Anticancer Drug Screen. Data for tumor model P388 Leukemia (intraperitoneal) in B6D2F1 (BDF1) mice
conditions: endpoint: median survival time; dose: 200.0 mg/kg/injection; schedule: Q01DX009 (ip); vehicle: Klucel (hydroxypropylcellulose) (HPC)
Inconclusive results and toxic doses are left out. How the source made its calls: active means survival T/C of 150% or more; inactive means T/C below 125% in these data.
Outcomes: active, inactive

- COc1ccc(C)cc1CN1NC(=O)CC1=N: inactive
- CCOC(=O)C(C#N)C(C)CC (centres undefined): inactive
- Nc1ncc(CNc2ccc(C(=O)NC(CCC(=O)O)C(=O)O)cc2)c(N)n1 (centres undefined): active
- COc1cccc(C(=O)O)c1OS(=O)(=O)c1ccccc1: inactive
- O=C1OC(c2ccccc2)(c2ccccc2)c2ccccc21: inactive
- O=[N+]([O-])c1c(Cl)cccc1-c1c[nH]cc1Cl: inactive
- c1ccc2c(c1)NC1(CCCCC1)S2: inactive
- Cc1[nH]c(=O)[nH]c(=O)c1C: inactive
- COc1cccc(C2N=NC3=C(CCCC3)N2O)c1O (centres undefined): inactive
- Cc1ccc(N(N)c2ccc(C)cc2)cc1: inactive
- CC(=N/NC(N)=S)/C(C)=N/NC(N)=S: inactive
- O=C(/C=C/C(=O)Oc1ccccc1)Oc1ccccc1: inactive
- O=C(O)Cc1ccc(C2CCCCC2)cc1: inactive
- COc1ccc(C=Nc2ccc(OC(C)=O)cc2)cc1: inactive

###

Quick list: T/C per entry.
System: BDF1 mice, P388 leukemia ip, median survival T/C
assay: NCI In Vivo Anticancer Drug Screen. Data for tumor model P388 Leukemia (intraperitoneal) in B6D2F1 (BDF1) mice
conditions: endpoint: median survival time; dose: 100.0 mg/kg/injection; schedule: Q01DX009 (ip); vehicle: saline with Tween-80; higher = longer survival
Toxic doses and inconclusive results are not listed.
property measured: T/C

- COc1cccc(/C=N/NC(=O)c2cc(C)nc3ccc(Br)cc23)c1O: 103 % of control
- CC1(CNC(=O)C(=O)NCC2(C)CO2)CO1 (stereo unspecified): 154 % of control
- COc1ccc(C(=O)C[N+](=O)[O-])cc1: 110 % of control
- CC(=O)OCC(CCn1ccc(=O)[nH]c1=O)COC(C)=O: 90 % of control
- c1cc2c3c(cccc3c1)N1C(=N2)Sc2nc3ccccc3nc21: 89 % of control
- CSCC(C(N)=O)c1cc(Cl)ccc1Cl (stereo unspecified): 100 % of control
- CCCCCCCCCC(O)CCCCC (stereo unspecified): 113 % of control
- COC(=O)C(Br)C(Br)c1ccccc1 (stereo unspecified): 113 % of control
- O=C(/C=C/c1ccccc1)NC(CO)Cc1ccccc1 (stereo unspecified): 100 % of control
- COc1ccc2c(c1)CC[C@@H]1[C@@H]2CC[C@]2(C)/C(=N\O)CC[C@@H]12: 104 % of control
- COc1ccc(C(=O)CC(C(=O)O)c2ccc3c(c2)OCO3)cc1OC (stereo unspecified): 109 % of control
- OCC1CSC2(CCCCC2)N1 (stereo unspecified): 105 % of control
- CCOC(=O)CCC1(C(=O)OCC)Oc2ccc(Cl)cc2C1=O (stereo unspecified): 93 % of control
- NC(Cc1ccc([N+](=O)[O-])cc1)C(=O)O (stereo unspecified): 105 % of control
- Cc1ccc2cc3c(ccc4ccccc43)c3c2c1CC3: 162 % of control
- CC(=O)OC1CC2CC1C1C3C=CC(C3)C21 (stereo unspecified): 109 % of control
- O=C(Cn1ccc(O)cc1=O)c1cccs1: 97 % of control
- CCOC(=O)CCCN(c1sc(C)c(-c2ccccc2)c1C(=O)OCC)S(=O)(=O)c1ccc(C)cc1: 109 % of control
- Cc1ccc2c(c1)CCCN2C=O: 109 % of control
- Cc1cc(O)c(C(c2ccc(N(C)C)cc2Cl)c2c(O)cc(C)[nH]c2=O)c(=O)[nH]1: 115 % of control
- C/C=C/C=C/C(=O)c1ccc(OC)cc1O: 109 % of control
- CCOC(=O)c1nnc(C)[nH]c1=O: 103 % of control
- C=CCCCCCCCCC(=O)NCC1CC1: 100 % of control
- O=C(/C=C/c1ccc(OCc2ccccc2)cc1)c1cccc(Br)c1: 100 % of control
- Cc1ccc(C(=O)Cl)cc1S(=O)(=O)F: 93 % of control
- O=C(c1ccccc1)C1OC1c1ccccc1 (stereo unspecified): 93 % of control
- Nc1nc(N)c(N=O)c(Nc2ccc(Cl)c(Cl)c2)n1: 109 % of control
- O=C(O)c1cc(C(=O)O)cc([N+](=O)[O-])c1: 90 % of control
- CCCCCC1(C)OCC(C)O1 (stereo unspecified): 106 % of control
- CCN(CC)c1oc2ccc3ccccc3c2c(=O)c1Cl: 94 % of control
- O=C(Nc1ccccc1)N(C(=O)C(F)(F)F)c1ccccc1: 92 % of control
- COC(=O)C(Sc1ccccc1N)C1SC(=S)N(Cc2ccccc2)C1=O (stereo unspecified): 104 % of control
- CC(Nc1ccc(Br)cc1[N+](=O)[O-])C(=O)O (stereo unspecified): 112 % of control
- Cc1ccc(-n2c(O)c(C=N)c(=O)n(-c3ccc(C)cc3)c2=O)cc1: 104 % of control
- CCCCCC1c2c(cc(C)[nH]c2=O)OC(O)C1CCCC (stereo unspecified): 90 % of control
- CCOCc1nc2nc(Cl)c(Cl)nc2[nH]1: 100 % of control
- c1c2c(cc3c1OC1=C(CCCCCCCCCC1)C3)OC1=C(CCCCCCCCCC1)C2: 100 % of control
- CC(C)CCOC(=O)CN(CC(=O)OCCC(C)C)c1ccccc1: 100 % of control
- COC(=O)CCC(C)C1CCC2C3CCC4CC(SC(=N)N)CCC4(C)C3CCC12C (stereo unspecified): 103 % of control
- c1ccc(N=NC2=NN(c3ccccc3)CCS2)cc1: 122 % of control
- C=CCc1ccccc1OC: 104 % of control
- COc1ccc2c(c1)CCC(C)(C#N)C2=O (stereo unspecified): 104 % of control
- COc1ccc(/C=C/C(=O)c2ccc(Cl)cc2)c(OC)c1: 109 % of control
- C/C(=C\c1ccccc1)C(C)(C)C(=O)O: 96 % of control
- COC(=S)SCN(CSC(=S)OC)c1ccccc1Cl: 118 % of control
- CN(C)c1ccc(/C=C\c2cc(/C=C/c3ccc(N(C)C)cc3)nc3ccccc23)cc1: 116 % of control
- NNc1ccc([N+](=O)[O-])c2[nH][nH]c(=O)c12: 107 % of control
- O=C(COC1CCCCC1)OC1CCCCC1: 118 % of control
- O=C1CCCC(=O)N1CCCCCCN1C(=O)CCCC1=O: 112 % of control
- O=C(Cn1ccc(O)cc1=O)c1ccc(Cl)s1: 98 % of control
- CC(C)CCS(=O)(=O)OCCCCOS(=O)(=O)CCC(C)C: 114 % of control

###

Test system: BDF1 mice, P388 leukemia ip, median survival T/C
assay: NCI In Vivo Anticancer Drug Screen. Data for tumor model P388 Leukemia (intraperitoneal) in B6D2F1 (BDF1) mice
conditions: endpoint: median survival time; dose: 50.0 mg/kg/injection; schedule: Q01DX009 (ip); vehicle: saline with Tween-80; higher = longer survival
Toxic doses and inconclusive results are not listed.
Below, each entry is listed alongside its reported T/C.
property measured: T/C

• C=C1N(c2nc(Cl)nc(Cl)n2)c2ccccc2C1(C)C = 116 % of control
• CS(=O)(=O)/C=C(\c1ccccc1)c1cccs1 = 114 % of control
• CS(=O)(=O)CC(O)(c1ccccc1)c1cccnc1 (stereo unspecified) = 98 % of control
• Cc1ccc(S(=O)(=O)Oc2ccc(-c3ccc(Br)cc3)cc2)cc1 = 96 % of control
• c1ccc(CCNCc2ccccc2)cc1 = 100 % of control
• COc1ccc(C(=O)CC(c2ccc3c(c2)OCO3)c2c(O)c3ccccc3oc2=O)cc1OC (stereo unspecified) = 116 % of control
• N#CN=CN1CCN(c2ccccn2)CC1 = 91 % of control
• CC(C)(C)OC(=O)NOc1ccc([N+](=O)[O-])cc1[N+](=O)[O-] = 93 % of control
• C=CCc1ccccc1OC = 118 % of control
• O=C(Nc1ccccc1)N(C(=O)C(F)(F)F)c1ccccc1 = 95 % of control
• NC(=O)c1ccc(-c2c3ccccc3cc3c2ccc2ccccc23)cc1 = 95 % of control
• CCCCCCCCCOCC1CO1 (stereo unspecified) = 111 % of control
• O=C1CC(SC(=S)C2CCCC2=O)C(=O)O1 (stereo unspecified) = 122 % of control
• Nc1nc(=O)n(CC(=O)c2cccs2)cc1F = 100 % of control
• CC1(C)OC1CC1=CC(=O)C=CC1=O (stereo unspecified) = 103 % of control
• CCC/C=C/C=C/C1CC(O)C(O)C(=O)C1C=O (stereo unspecified) = 101 % of control
• O=C(CC(=O)C(F)(F)C(F)(F)C(F)(F)F)c1csc2ccccc12 = 100 % of control
• C[CH2][Ge]([CH2]C)[CH2]/C=C\[CH2][Ge]([CH2]C)[CH2]C = 100 % of control
• COC(=O)CCC(C)C1CCC2C3CCC4CC(SC(=N)N)CCC4(C)C3CCC12C (stereo unspecified) = 105 % of control
• CC(C)(C)CC(C)(C)c1ccc(OCCOS(=O)(=O)c2cccc([N+](=O)[O-])c2)cc1 = 109 % of control
• O=P(O)(Oc1ccccc1)Oc1ccccc1.[Al] = 104 % of control
• CC(=O)N1C(=O)NC(=O)C1(C)c1ccco1 (stereo unspecified) = 112 % of control
• Cc1cc(C)nc(NN)n1 = 102 % of control
• CC1(C)OC1[Si](C)(C)C (stereo unspecified) = 107 % of control
• O=C(Nc1cccc2cccnc12)C12CC3CC(CC(C3)C1)C2 = 96 % of control
• O=C(COC1CCCCC1)OC1CCCCC1 = 113 % of control
• O=C(c1ccncc1)c1c(Cc2ccccc2)ccc2ccccc12 = 92 % of control
• O=C(Nc1ncccn1)C12CC3CC(CC(C3)C1)C2 = 88 % of control
• COc1ccc(N=C2C(=O)Nc3ccc(Br)cc32)cc1 = 100 % of control
• O=C1OC(=O)C2C1C(c1ccc([N+](=O)[O-])cc1)N1C3C(=O)OC(=O)C3C(c3ccc([N+](=O)[O-])cc3)N21 (stereo unspecified) = 97 % of control
• Oc1ccc2ccccc2c1/C=N\Sc1ccc(Cl)cc1 = 106 % of control
• O=c1ccc2c([nH]1)CCC2 = 90 % of control
• Cc1cc(N(CCCl)CCCl)ccc1C=Nc1cccc(Cl)c1 = 103 % of control
• Nc1nc(N)c(N=O)c(Nc2ccc(Cl)c(Cl)c2)n1 = 109 % of control
• CN(C)c1ccc(/C=C\c2ccnc3c([N+](=O)[O-])cccc23)cc1 = 115 % of control
• C/C(=C\c1ccccc1)C(C)(C)C(=O)O = 102 % of control
